Form field: Ki (one value per entry).
Biological target: hMCR-4 (Homo sapiens (Human), UniProt P32245)
Sequence (P32245 whole entry): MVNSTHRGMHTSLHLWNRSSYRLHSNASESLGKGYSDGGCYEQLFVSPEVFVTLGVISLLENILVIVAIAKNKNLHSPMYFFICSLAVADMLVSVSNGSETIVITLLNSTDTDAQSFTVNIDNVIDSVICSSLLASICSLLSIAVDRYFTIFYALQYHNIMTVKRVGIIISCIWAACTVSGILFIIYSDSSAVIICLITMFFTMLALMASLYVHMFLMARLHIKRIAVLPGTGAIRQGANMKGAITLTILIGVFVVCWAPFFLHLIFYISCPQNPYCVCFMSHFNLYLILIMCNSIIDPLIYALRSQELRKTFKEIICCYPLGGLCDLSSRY
Assay: Competitive inhibition binding assay using [I125]-NDP-α-MSH, hMCR-4
Conditions: membrane homogenates of HEK-293 cells, human recombinant receptor, averaged, read-out: MC-4 Ki (average)
Method: A competitive inhibition binding assay was performed using membrane homogenates prepared from HEK-293 cells that express recombinant hMCR-1a or hMCR-4 (in each instance where the h prefix refers to human), or alternatively membrane homogenates from B16-F10 mouse melanoma cells containing endogenous murine MCR-1. […] Plates were counted in a Microbeta counter for bound radioactivity. […] Ki values for peptides of the present invention were determined using Graph-Pad Prism® curve-fitting software. […]
Numbered stars: 1 amine (or outer) side, 2 acyl side, 3 side chain; on linkers, the order of the positions; unused ones are H or OH. Bridge positions count the residues as written; N and C are the ends. Square brackets hold non-standard residues; d marks the D form. Peptide text beside a SMILES is read from it. Suc = O=C(CCC(=O)[*:2])[*:1]; Nle = CCCC[C@H](N)C(=O)O; Dab = NCC[C@H](N)C(=O)O

- compound: "CCCC[C@H](NC(C)=O)C(=O)N[C@H]1CCC(=O)NCC[C@@H](C(=O)N[C@@H](Cc2c[nH]c3ccccc23)C(N)=O)NC(=O)[C@H](C)NC(=O)[C@@H](Cc2ccccc2)NC(=O)[C@H](Cc2c[nH]cn2)NC1=O [Example 9.35] (Ac-[Nle]EH[dF]A[Dab]W-NH2; lactam 2-6)"
  measured.on: "hMCR-4 (Homo sapiens (Human), UniProt P32245)"
  Ki [µM]: 10
- compound: "CCCC[C@H](NC(C)=O)C(=O)N[C@H]1CCC(=O)NCCCC[C@@H](C(=O)N[C@@H](Cc2c[nH]c3ccccc23)C(N)=O)NC(=O)[C@H](CCCNC(=N)N)NC(=O)[C@@H](Cc2ccccc2)NC(=O)[C@H](Cc2c[nH]cn2)NC1=O"
  measured.on: "hMCR-4 (Homo sapiens (Human), UniProt P32245)"
  Ki [µM]: 0.045
- compound: "N=C(N)NCCC[C@@H]1NC(=O)[C@@H](Cc2ccccc2)NC(=O)[C@H](Cc2c[nH]cn2)NC(=O)CCC(=O)NCC[C@@H](C(=O)N[C@@H](Cc2c[nH]c3ccccc23)C(N)=O)NC1=O [Example 9.14, cyclo(Suc-His-Phe-Arg-Dab)-Trp-NH2] (H[dF]R[Dab]W-NH2; linker N-4 via Suc)"
  measured.on: "hMCR-4 (Homo sapiens (Human), UniProt P32245)"
  Ki [µM]: 10

* * *

Target: hMCR-4 (Homo sapiens (Human))
Assay: Competitive inhibition binding assay using [I125]-NDP-α-MSH, hMCR-4
Conditions: membrane homogenates of HEK-293 cells, human recombinant receptor, averaged, read-out: MC-4 Ki (average)
Bridge positions count the residues as written; N and C are the ends. Square brackets hold non-standard residues; d marks the D form. Peptide text beside a SMILES is read from it. Nle = CCCC[C@H](N)C(=O)O; Dab = NCC[C@H](N)C(=O)O
Recorded Ki by entry

- molecule: "CCCC[C@H](NC(C)=O)C(=O)N[C@H]1CNC(=O)CCC(=O)NC[C@@H](C(=O)N[C@@H](Cc2c[nH]c3ccccc23)C(N)=O)NC(=O)[C@H](CCCNC(=N)N)NC(=O)[C@@H](Cc2ccccc2)NC(=O)[C@H](Cc2c[nH]cn2)NC1=O [Example 9.28]"
  Ki: "680 nM"
- molecule: "CCCC[C@H](NC(C)=O)C(=O)N[C@H]1CCC(=O)NCC[C@@H](C(=O)N[C@@H](Cc2cccc3ccccc23)C(N)=O)NC(=O)[C@H](CCCNC(=N)N)NC(=O)[C@@H](Cc2ccccc2)NC(=O)[C@H](Cc2c[nH]cn2)NC1=O [Example 9.30]"
  Ki: "0.75 nM"
- molecule: "CCCC[C@H](NC(C)=O)C(=O)N[C@H]1CCC(=O)NCC[C@@H](C(N)=O)NC(=O)[C@H](CCCNC(=N)N)NC(=O)[C@@H](Cc2ccccc2)NC(=O)[C@H](Cc2c[nH]cn2)NC1=O [Example 9.32, Ac-Nle-cyclo(Glu-His-D-Phe-Arg-Dab)-NH2] (Ac-[Nle]EH[dF]R[Dab]-NH2; lactam 2-6)"
  Ki: "10000 nM"
- molecule: "CCCC[C@H](NC(C)=O)C(=O)N[C@H]1CCC(=O)NCC[C@@H](C(=O)N[C@@H](Cc2c[nH]c3ccccc23)C(N)=O)NC(=O)[C@H](CCCNC(=N)N)NC(=O)[C@@H](Cc2ccccc2)NC(=O)[C@H](CCCCN)NC1=O [Example 9.40]"
  Ki: "95 nM"
- molecule: "CCCC[C@H](NC(C)=O)C(=O)N[C@H]1CCC(=O)NCC[C@@H](C(=O)N[C@@H](Cc2c[nH]c3ccccc23)C(N)=O)NC(=O)[C@H](CCCNC(=N)N)NC(=O)[C@@H](Cc2ccccc2)NC(=O)[C@H](Cc2c[nH]cn2)NC1=O [Example 9.2]"
  Ki: "110 nM"
